Test system: Plasmodium falciparum
Test: GSK_TCMDC: Inhibition of Plasmodium falciparum Dd2 in whole red blood cells, using parasite LDH activity as an index of growth. Test compounds present at 2uM
Format: functional
Recorded Inhibition, one value per entry.

# MOLECULE, TARGET_SYSTEM, Inhibition [%]
measured = [
    ("COC(=O)c1ccc(CC(C)NCC(O)c2cccc(Br)c2)cc1 (stereo unspecified)", "Plasmodium falciparum", 88),
    ("Clc1ccc2nccc(N3CCC(CN4CCC(c5c[nH]c6ccccc56)CC4)CC3)c2c1.O=C(O)C(F)(F)F", "Plasmodium falciparum", 81),
    ("CC[C@H]1CN2CC[C@@H]1C[C@H]2[C@H](O)c1cc(-c2c(C)noc2C)nc2ccc(OC)cc12.Cl", "Plasmodium falciparum", 98),
    ("Cc1ccc(CC(C)NCC(O)c2cccc(C(F)(F)F)c2)c(C)c1.Cl (stereo unspecified)", "Plasmodium falciparum", 99),
    ("CCN1CCC2(c3cccc(OC)c3)Cc3nc4ccccc4c(-c4ccccc4)c3CC2C1 (stereo unspecified)", "Plasmodium falciparum", 98),
    ("CC[C@H]1CN2CC[C@@H]1C[C@H]2[C@H](O)c1cc(-c2cccnc2)nc2ccc(OC)cc12.Cl", "Plasmodium falciparum", 99),
    ("COC(=O)/C=C/c1ccc(CC(C)NCC(O)c2cccc(C(F)(F)F)c2)cc1 (stereo unspecified)", "Plasmodium falciparum", 96),
    ("CC[C@H]1CN2CC[C@H]1C[C@H]2[C@H](O)c1cc(-c2ccccc2C(F)(F)F)nc2ccc(OC)cc12.Cl", "Plasmodium falciparum", 99),
    ("CN(c1cc(NC(=O)c2cccs2)ccn1)C1CCN(Cc2cccc(F)c2)CC1.O=C(O)C(F)(F)F", "Plasmodium falciparum", 95),
    ("CN1CC=C(c2c[nH]c3ccc(Br)cc23)CC1", "Plasmodium falciparum", 80),
    ("CCC1(C)CC(CCNCc2ccccc2O)(c2ccc(C)cc2)CCO1 (stereo unspecified)", "Plasmodium falciparum", 66),
]
